B1: TPR t1 (parent)
chain: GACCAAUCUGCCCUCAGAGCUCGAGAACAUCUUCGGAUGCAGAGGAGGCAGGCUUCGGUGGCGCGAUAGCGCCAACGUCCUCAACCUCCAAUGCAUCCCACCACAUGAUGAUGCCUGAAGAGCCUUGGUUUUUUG

Variants of: B1
Experiment: polymerase ribozyme fitness, log enrichment relative to wild type (log ratio); higher = more active; in vitro selection for triplet polymerase activity
Rule: polymerase ribozyme fitness (log ratio) of -4 or more gives met; anything lower gives not met.

GACCAAUCUGCCCUCAGAGCUCGAGAACAUCUUCGGAUGCAGAGGAGGCAGGCUUCGGUGGCGCGAUAGCGCCAACGUCCUCAACCUCCAAUGCAUCCCACCACAUGAUGACGCCUAAAGAGCCUUGGUUUUUUG [U112C G117A] = met
GACCAAUCUGACCUCAGAGCUCGAGGACAUCUUCGGAUGCAGAGGAGGCAGGCUUCGGUGGCGCGAUAGCCCCAACGUCCUCAACCUCCAAUGCAUCCCAACACAUGAUGAUGUCUGAAGAGCCUUGGUUUUUUG [C11A A26G G71C C101A C114U] = not met
GACCAAUCUGCCCUCAGAGCUCGAGACCAUCUUCGGAUGCAGAGGAGGCAGGAUUCGGUGGCGCGAUAGCGCCAACGUCCUCAACCUCCAAUGGAUCCCACCACAUGAUGAUGCCUGAAGAGCCUUGGUUUUUUG [A27C C53A C94G] = not met

Enquiry: Record GACCAAUCUGCCCUCAGAGCUCGAGAACAUCUUCGGAUGCAGAGGAAGCAGGCUUCGGUGGCGCGAUAGCGGCAACGUCCUCAACCUCCAAUGCAUCCCACCACAUGAUGAUGCCUGAAGAGCCUUGGUUUUUUG [G47A C72G] ; criterion: polymerase ribozyme fitness (log ratio) no lower than -4. Met?
Return: met

Enquiry: Record GACCAAUCUGCCCUCGGAGCUCGAGAACAUCUUCGGAUGCAGAGGAGGCACGCUUCGGUGGCGCGAUAGCGCCAACGUCCUAAACCUCCAAUGCAUCCCACCACAUGAUGAUGCCUGAAGAGCGUUGGUUUUUUG [A16G G51C C82A C124G] ; criterion: polymerase ribozyme fitness (log ratio) no lower than -4. Met?
Return: met

Enquiry: Record GACCAAUCUGCCCUCAGAGUUCGAGAACAUCUUCGGAUGCAGAGGAGGCAGACUUCGGUAGCGCGAUAGCGCCAACGUCCUCAACCUCCAAUGCAUCCCACCACAUGAUGAUGCCUGAAGAGCCUUGGUUUUUUG [C20U G52A G60A] ; criterion: polymerase ribozyme fitness (log ratio) no lower than -4. Met?
Return: met

Enquiry: Record GACCAAUCUGCCCUCAGAGCUCGAGAACAUCUUCGGAUGCAGAGGAGGCAGGCUUCGGUGGCGCGAUAGCGCCAACGUCCUCAACCUCCAAUGCAUCCCACCACAUGAAUAUGCCUGAAGAGCCUUGGUUUUUUG [U109A G110U] ; criterion: polymerase ribozyme fitness (log ratio) no lower than -4. Met?
Return: met

Enquiry: Record GACCAAUCCGCCCUCAGAGCUCGAGAACAUCUUCGGAUGGAGAGGAGGCAGGCUACGGUGGCGCGAUAGCGCCAAAGUCCUCAACCUGCAAUGCAUCCCACCACAUGAUGAUGCCUGAAGAGCCUUGGUUUUUUG [U9C C40G U55A C76A C88G] ; criterion: polymerase ribozyme fitness (log ratio) no lower than -4. Met?
Return: not met

Enquiry: Record GACCAAUCUGCCCUCAGAGCUCGAGAACAUCUUCGGAUGCAGAGGAGGCAGGCUUCGGUGGCGCGAUGGCGCCAACGUCCUCAACCUGCAAUGCAUCCCACCACCUGAUGCUGCCUGAAGAGCCUUGGUUUUUUG [A68G C88G A105C A111C] ; criterion: polymerase ribozyme fitness (log ratio) no lower than -4. Met?
Return: not met

Enquiry: Record GACCAACCUGCCCUCAGAGAUCGAGAACAUCUUCGGAUCCAGAGGAGGCAGGCUUCGGUGACGCGAUAGCGCCAACGUCCUCAACCUCCAAUGCAUCCCACCACAUGAUGAUGCCUGAAGAGCCUUGGUUUUUUG [U7C C20A G39C G61A] ; criterion: polymerase ribozyme fitness (log ratio) no lower than -4. Met?
Return: met
